Test system: NCI-H2087
Assay: relative viability (nuclei count vs DMSO), 5 days (fraction); higher = more cells survive
Details: first compound 0.8 µM
Entries annotated with measured relative viability

Compound	Target desc	Test value
COc1nc(C)cnc1NS(=O)(=O)c1cccnc1-c1ccc(-c2nnco2)cc1 [Zibotentan] + NC(=O)Nc1cc(-c2cccc(F)c2)sc1C(=O)N[C@H]1CCCNC1 [AZD7762] (partner 0.2 µM)	NCI-H2087	1.29
COc1nc(C)cnc1NS(=O)(=O)c1cccnc1-c1ccc(-c2nnco2)cc1 [Zibotentan] + CC(=O)Nc1cccc(-n2c(=O)n(C3CC3)c(=O)c3c(Nc4ccc(I)cc4F)n(C)c(=O)c(C)c32)c1 [Trametinib] (partner 0.02 µM)	NCI-H2087	0.246
O=c1cc(-c2cccc3c2Sc2ccccc2S3)oc(N2CCOCC2)c1 + Cc1cc(Nc2cc(N3CCN(C)CC3)nc(Sc3ccc(NC(=O)C4CC4)cc3)n2)n[nH]1 [Tozasertib] (partner 0.1 µM)	NCI-H2087	0.266
COc1nc(C)cnc1NS(=O)(=O)c1cccnc1-c1ccc(-c2nnco2)cc1 [Zibotentan] + N=C(N)NC(=N)NCCc1ccccc1 [Phenformin] (partner 250 µM)	NCI-H2087	0.54
O=c1cc(-c2cccc3c2Sc2ccccc2S3)oc(N2CCOCC2)c1 + Cc1nc(NC(=O)N2CCC[C@H]2C(N)=O)sc1-c1ccnc(C(C)(C)C(F)(F)F)c1 [Alpelisib] (partner 2 µM)	NCI-H2087	1.09

Any idea what relative viability was measured for O=c1cc(-c2cccc3c2Sc2ccccc2S3)oc(N2CCOCC2)c1 + CC(=O)Nc1cccc(-n2c(=O)n(C3CC3)c(=O)c3c(Nc4ccc(I)cc4F)n(C)c(=O)c(C)c32)c1 [Trametinib] (partner 0.02 µM) ?
0.172

Given O=c1cc(-c2cccc3c2Sc2ccccc2S3)oc(N2CCOCC2)c1 + C[C@]1(O)C[C@@H](c2nc(-c3ccc4ccc(-c5ccccc5)nc4c3)c3c(N)nccn32)C1 [Linsitinib] (partner 1 µM) , state its recorded relative viability.
0.927
